# system_name: LEDGF-Integrase interaction (Human immunodeficiency virus type 1 group M subtype B)
# Construct: His6-tagged integrase (78 nM final concentration); purchased Prof; Zeger Debyser, Katholieke Universiteit Leuven (supplied by an academic laboratory, not a commercial vendor)
# assay_summary: HTRF Interaction assay (S9118)
# Parameters: species or system HIV
# experimental_context: His6-tagged integrase and MBP-LEDGF integrase binding domain; table values
What IC50 was measured for each of the following?
Numbers only, in µM.

Below are 6 molecules. Give each one its IC50.
1. Cc1nc2sc3c(c2c(-c2ccc(C(F)(F)F)nc2)c1C(OC(C)(C)C)C(=O)O)CCCC3 (centres unmarked)
2. Cc1nc2sc3c(c2c(-c2ccc(C#N)cc2)c1C(OC(C)(C)C)C(=O)O)CCCC3 (centres unmarked)
3. Cc1nc2sc3c(c2c(-c2ccc4cnn(C)c4c2)c1C(OC(C)(C)C)C(=O)O)CCCC3 (centres unmarked) [Example 10]
4. Cc1nc2sc3c(c2c(-c2ccccc2CO)c1C(OC(C)(C)C)C(=O)O)CCCC3 (centres unmarked)
5. Cc1nc2ccc(-c3c(C(OC(C)(C)C)C(=O)O)c(C)nc4sc5c(c34)CCCC5)cc2s1 (centres unmarked)
6. Cc1nc2sc3c(c2c(-c2ccc(N(C)C)nc2)c1C(OC(C)(C)C)C(=O)O)CCCC3 (centres unmarked)

-- reply
[11.7, 14.8, 7.87, 56.3, 12.8, 64.6]

###

# system_name: LEDGF-Integrase interaction (Human immunodeficiency virus type 1 group M subtype B, UniProt P12497)
# Construct: His6-tagged integrase (78 nM final concentration); purchased Prof; Zeger Debyser, Katholieke Universiteit Leuven (supplied by an academic laboratory, not a commercial vendor)
# assay_summary: HTRF Interaction assay (S9118)
# Set-up: species or system HIV
# experimental_context: His6-tagged integrase and MBP-LEDGF integrase binding domain; table values
What IC50 was measured for each of the following?

molecule: Cc1cc(-c2c(C(OC(C)(C)C)C(=O)O)c(C)nc3sc4c(c23)CCCC4)ccn1 (centres unmarked) [Example 37]
endpoint: IC50
reported_value: > 100 µM

molecule: Cc1nc2sc3c(c2c(-c2c[nH]c4nccc-4c2)c1C(OC(C)(C)C)C(=O)O)CCCC3 (centres unmarked) [Example 36]
endpoint: IC50
reported_value: > 100 µM

molecule: CCOC(C(=O)O)c1c(C)nc2sc3c(c2c1-c1ccc2scnc2c1)CCCC3 (centres unmarked) [Example 31]
endpoint: IC50
reported_value: > 100 µM

molecule: CCOC(C(=O)O)c1c(C)nc2sc3c(c2c1-c1ccccc1CO)CCCC3 (centres unmarked) [Example 34]
endpoint: IC50
reported_value: > 100 µM

Here is another molecule to look at.
-- ask Please report the measured IC50 for Cc1nc2sc3c(c2c(-c2ccc4nccn4c2)c1C(OC(C)(C)C)C(=O)O)CCCC3 (centres unmarked) [Example 17]
-- reply > 100 µM
